System: Helicobacter pylori
Experiment: Urease activity in H pylori, CCUG 15818, at 10 uM
Outcome Measure: Urease activity (% of control) (%)
Please state the figure in %; there is no need to write the unit.

Cc1c(OCC(F)(F)F)ccnc1C[S+]([O-])c1nc2ccccc2[nH]1 (stereo unspecified)    103
Cc1cc(C)c(C[S+]([O-])c2nc3cc(Cl)ccc3[nH]2)nc1C (stereo unspecified)    105
COc1ccc2[nH]c([S+]([O-])Cc3ncc(C)c(OC)c3C)nc2c1 (stereo unspecified)    96
COc1ccc2[nH]c([S+]([O-])Cc3nccc(OC(C)C)c3C)nc2c1 (stereo unspecified)    35
COc1ccnc(C[S+]([O-])c2nc3cc4c(cc3[nH]2)CCC4)c1C (stereo unspecified)    35

Tell me the measured Urease activity (% of control) of CCOc1ccnc(C[S+]([O-])c2nc3ccccc3[nH]2)c1C (stereo unspecified) , please.
38

---

Collected log10(half-life) values appear next to each entry.
Assay: Half life at pH 7 is a measure of the rate by which the compound is converted to the active species
Format: ADME
Settings: buffer
In our notation, the value equals log10 of half-life in h.

Solved entries:
CCOc1ccnc(C[S+]([O-])c2nc3ccccc3[nH]2)c1C (stereo unspecified)    -0.05
COc1ccnc(C[S+]([O-])c2nc3cc(F)c(F)cc3[nH]2)c1OC (stereo unspecified)    1.84
COc1ccnc(C[S+]([O-])c2nc3c(F)cc(F)cc3[nH]2)c1 (stereo unspecified)    1.51
COc1ccnc(C[S+]([O-])c2nc3c(F)cccc3[nH]2)c1 (stereo unspecified)    1.36
COc1ccc2[nH]c([S+]([O-])Cc3nccc(OC(C)C)c3C)nc2c1 (stereo unspecified)    0.18
COc1ccnc(C[S+]([O-])c2nc3cc4c(cc3[nH]2)CCC4)c1C (stereo unspecified)    0.07
COc1ccc2[nH]c([S+]([O-])Cc3ncc(C)c(OC)c3C)nc2c1 (stereo unspecified)    1.36
Cc1c(OCC(F)(F)F)ccnc1C[S+]([O-])c1nc2ccccc2[nH]1 (stereo unspecified)    1.11
COc1c(OCC2CC2)ccnc1C[S+]([O-])c1nc2cc(F)ccc2[nH]1 (stereo unspecified)    1.70
COc1ccnc(C[S+]([O-])c2nc3cc(C(C)(C)C)ccc3[nH]2)c1C (stereo unspecified)    0.00

Shifting focus to the compound that follows.
Tell me the measured log10(half-life) of COc1ccnc(C[S+]([O-])c2nc3cc(CO)ccc3[nH]2)c1C (stereo unspecified) , please.
0.00

---

Assay: pKa value of the compound (pyridine ring substitutions dependent) at pH 6
Assay type: physicochemical
Settings: read-out: pKapy
Outcome Measure: pKa
Field format: numeric only.

Tell me the measured pKa of COc1ccc2[nH]c([S+]([O-])Cc3ncc(C)c(OC)c3C)nc2c1 (stereo unspecified) , please.
4

---

Collected Urease activity (% of control) values appear next to each entry.
Tested on: Helicobacter pylori
Assay: Urease activity in wild type H pylori, CCUG 15818, at 100 uM
Please state the figure in %; there is no need to write the unit.

Solved entries:
COc1ccnc(C[S+]([O-])c2nc3cc4c(cc3[nH]2)CCC4)c1C (configuration not stated)    0
COc1ccc2[nH]c(SCc3ncc(C)c(OC)c3C)nc2c1    99
COc1ccnc(C[S+]([O-])c2nc3cc(CO)ccc3[nH]2)c1C (configuration not stated)    32
COc1ccnc(C[S+]([O-])c2nc3c(F)cc(F)cc3[nH]2)c1 (configuration not stated)    80
Cc1c(OCC(F)(F)F)ccnc1C[S+]([O-])c1nc2ccccc2[nH]1 (configuration not stated)    29

For the record COc1ccc2[nH]c([S+]([O-])Cc3nccc(OC(C)C)c3C)nc2c1 (configuration not stated) , what value of Urease activity (% of control) is listed for Helicobacter pylori?
0

Can you check CCOc1ccnc(C[S+]([O-])c2nc3ccccc3[nH]2)c1C (configuration not stated) next?
8

Can you check COc1c(OCC2CC2)ccnc1C[S+]([O-])c1nc2cc(F)ccc2[nH]1 (configuration not stated) next?
84

Can you check COc1ccc2[nH]c([S+]([O-])Cc3ncc(C)c(OC)c3C)nc2c1 (configuration not stated) next?
64

---

System: Helicobacter pylori
Experiment: Urease activity in wild type H pylori, CCUG 15818, at 100 uM
Collected Urease activity (% of control) values appear next to each entry.
Please state the figure in %; there is no need to write the unit.

For the record Cc1cc(C)c(C[S+]([O-])c2nc3cc(Cl)ccc3[nH]2)nc1C (stereo not drawn) , what value of Urease activity (% of control) is listed for Helicobacter pylori?
164

Can you check COc1ccnc(C[S+]([O-])c2nc3c(F)cccc3[nH]2)c1 (stereo not drawn) next?
58

Can you check COc1ccnc(C[S+]([O-])c2nc3cc(C(C)(C)C)ccc3[nH]2)c1C (stereo not drawn) next?
1

Values from ChEMBL document CHEMBL1128210
